Source of measurements: paper PMC5648786

# TARGET ENTITY: GmPOPB-S577A (inactive mutant) (Galerina marginata, UniProt H2E7Q8, S577A)
# Construct: His-tag (TEV-cleavable) (cleaved yes); made in house; host or cells: E. coli BL21(DE3)
# PROTOCOL: Isothermal titration calorimetry, peptide binding to inactive mutant GmPOPB_S577A
# CONDITION DESCRIPTION: ITC, GmPOPB_S577A, 20 °C; average ± SEM
No end group written: not given here.
ATTRIBUTE MEASURED: ΔG (kcal/mol)
All answers are understood in kcal/mol, so give the number only.

Examples from the recorded data:
TLASGNDIC [9mer-recognition sequence] = -5.3
IWGIGCNPWT [10mer] = -5.5
IWGIGCNPWTAE [12mer] = -6.3
IWGIGCNPWTAEHV [14mer] = -6.7
VDQTLASGNDIC [12mer-recognition sequence] = -7.1
IWGIGCNPWTA [11mer] = -5.9

Give the measured ΔG for IWGIGCNPWTAEH [13mer]
-7.3
